The values you see were collected from paper PMC6379670.

# System: L22 (synthetic)
# test-description: EMSA
reported-endpoint: Kd
Report the figure along with its unit, number first.

Fill in: Kd of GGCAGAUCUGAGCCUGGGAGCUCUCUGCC [HIV-1 TAR] is ___
30 nM

* * *

# Tested on: JB181 (synthetic)
# test-description: EMSA
reported-endpoint: Kd (nM)
Express your answer in nM, writing the number without its unit.

Fill in: Kd of GGCUCGUGUAGCUCAUUAGCUCCGAGCC [BIV TAR] is ___
3.3

* * *

Exercise: for every item that follows, state its recorded Kd.
# target-system: BIV TAR RNA
# test-description: EMSA binding to BIV TAR
# condition-summary: positional scanning library, Table S1
Non-standard residues stand in square brackets, D forms with d. Residues, ends and D or L forms follow the SMILES beside them.
Express your answer in nM, writing the number without its unit.

Fill in: Kd of CC[C@H](C)[C@@H]1NC(=O)[C@H](CCCNC(=N)N)NC(=O)[C@H](CCCNC(=N)N)NC(=O)CNC(=O)[C@H](CCCCN)NC(=O)[C@H](CCCNC(=N)N)NC(=O)[C@H]([C@@H](C)O)NC(=O)[C@H](CCCNC(=N)N)NC(=O)[C@H](Cc2ccc(O)cc2)NC(=O)[C@H](CCCNC(=N)N)NC(=O)[C@@H]2CCCN2C(=O)[C@H]2CCCN2C(=O)[C@H]([C@@H](C)CC)NC(=O)[C@H](CCCNC(=N)N)NC1=O [JB-62] (cyclo(RYRTRKGRRIRI[dP]P)) is ___
10

// next record CC[C@H](C)[C@@H]1NC(=O)[C@H](CCCNC(=N)N)NC(=O)[C@H](CCCNC(=N)N)NC(=O)CNC(=O)[C@H](CCCCN)NC(=O)[C@H](CCCNC(=N)N)NC(=O)[C@H]([C@@H](C)O)NC(=O)[C@H](CCCNC(=N)N)NC(=O)[C@H](C(C)C)NC(=O)[C@H](CCCNC(=N)N)NC(=O)[C@@H]2CCCN2C(=O)[C@H]2CCCN2C(=O)[C@H](C(C)C)NC(=O)[C@H](CCCNC(=N)N)NC1=O [JB-84] (cyclo(RVRTRKGRRIRV[dP]P))
1

// next record CC[C@H](C)[C@@H]1NC(=O)[C@H](CCCNC(=N)N)NC(=O)[C@H](CCCNC(=N)N)NC(=O)CNC(=O)[C@H](CCCCN)NC(=O)[C@H](CCCNC(=N)N)NC(=O)[C@H]([C@@H](C)O)NC(=O)[C@H](CCCNC(=N)N)NC(=O)[C@H](C(C)C)NC(=O)[C@H](CCCNC(=N)N)NC(=O)[C@@H]2CCCN2C(=O)[C@H]2CCCN2C(=O)[C@H](CC(C)C)NC(=O)[C@H](CCCNC(=N)N)NC1=O [JB-85] (cyclo(RVRTRKGRRIRL[dP]P))
1
